Target: T1, recombinant human DLL3 extracellular domain (R&D Systems, Cat #9749-DL) (human, UniProt Q9NYJ7 27-492)
T1 construct: Bought protein; also called soluble recombinant human DLL3 extracellular domain
T1 sequence: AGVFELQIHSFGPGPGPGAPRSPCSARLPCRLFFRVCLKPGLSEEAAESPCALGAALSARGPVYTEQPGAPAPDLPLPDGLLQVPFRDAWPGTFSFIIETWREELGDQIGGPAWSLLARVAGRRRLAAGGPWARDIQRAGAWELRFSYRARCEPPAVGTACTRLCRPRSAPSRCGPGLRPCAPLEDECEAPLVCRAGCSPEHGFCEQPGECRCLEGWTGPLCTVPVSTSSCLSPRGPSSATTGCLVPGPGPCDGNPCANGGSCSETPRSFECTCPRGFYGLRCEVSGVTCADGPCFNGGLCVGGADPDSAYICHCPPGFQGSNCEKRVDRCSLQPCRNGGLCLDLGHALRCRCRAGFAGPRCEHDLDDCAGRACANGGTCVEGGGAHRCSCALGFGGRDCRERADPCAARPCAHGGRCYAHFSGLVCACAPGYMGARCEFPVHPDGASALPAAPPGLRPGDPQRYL
Assay: phage ELISA after three rounds of panning on biotinylated recombinant human DLL3
Quantity name: binding result

SEQ ID NO 614 (other, also called Humanized VH variant #9) VH: EVQLVESGGGLVQPGGSLRLSCAASGFNISEHSIGWVRRAPGKGEELVARIYPTNGYTRYADSVKGRFTISADTSKNTAYLQMNSLRAEDTAVYYCARSYYHGYSHGHHYYAIDYSGQGTLVTVSS: binds
SEQ ID NO 618 (other, also called Humanized VH variant #13) VH: EVQLVESGGGLVQPGGSLRLSCAASGFNISEESIGWVRRAPGKGEELVARIYPTNGYTRYADSVKGRFTISADTSKNTAYLQMNSLRAEDTAVYYCARSYYAHYSAGYYYYALDYSGQGTLVTVSS: binds
